target entity: Casein kinase II subunit alpha (Homo sapiens)
conditions: at 1 µM
measured metric: inhibition (%)
Field: numeric (%). Do not append units.

query: Requested read-out inhibition, target or system Casein kinase II subunit alpha (Homo sapiens), entry Cc1nnc(-c2cccc(-c3ccc(C(=O)NCC4CC4)cc3)c2)o1
result: 8.99

query: Requested read-out inhibition, target or system Casein kinase II subunit alpha (Homo sapiens), entry CS(=O)(=O)CCNCc1ccoc1-c1ccc2ncnc(Nc3ccc(OCc4ccccc4)cc3)c2c1
result: 1.94

query: Requested read-out inhibition, target or system Casein kinase II subunit alpha (Homo sapiens), entry CN(C)CCNC(=O)Nc1ccc(N(C)c2ccnc(Nc3ccc(CS(C)(=O)=O)cc3)n2)cc1
result: 0.31

query: Requested read-out inhibition, target or system Casein kinase II subunit alpha (Homo sapiens), entry CNC(=O)c1ncccc1Nc1nc(Nc2cc3c(cc2OC)CCCN3C(=O)CN(C)C)nc2[nH]ccc12
result: 22.8

query: Requested read-out inhibition, target or system Casein kinase II subunit alpha (Homo sapiens), entry O=C(O[C@H]1CN[C@H](C#Cc2cc3ncnc(Nc4ccc(OCc5cccc(F)c5)c(Cl)c4)c3s2)C1)N1CCOCC1
result: 11.5

query: Requested read-out inhibition, target or system Casein kinase II subunit alpha (Homo sapiens), entry NS(=O)(=O)c1ccc(N/N=C2\C(=O)Nc3ccc(C(=O)NCc4ccncc4)cc32)cc1
result: 13.1

query: Requested read-out inhibition, target or system Casein kinase II subunit alpha (Homo sapiens), entry NS(=O)(=O)c1cccc(N/C=C2\C(=O)Nc3ccccc32)c1
result: 3.93

query: Requested read-out inhibition, target or system Casein kinase II subunit alpha (Homo sapiens), entry N#Cc1cccc(Nc2ncc(-c3ccccc3)o2)c1
result: 11.7

query: Requested read-out inhibition, target or system Casein kinase II subunit alpha (Homo sapiens), entry CS(=O)(=O)Nc1ccc(-c2cc(-c3ccccc3)cc(C(N)=O)c2N)cc1
result: 2.26

query: Requested read-out inhibition, target or system Casein kinase II subunit alpha (Homo sapiens), entry Fc1cccc(COc2ccc(Nc3ncncc3C#Cc3ccccc3)cc2Cl)c1
result: 11.3

query: Requested read-out inhibition, target or system Casein kinase II subunit alpha (Homo sapiens), entry COc1cc(Nc2ncc(-c3ccccc3)o2)cc(OC)c1
result: 3.91

query: Requested read-out inhibition, target or system Casein kinase II subunit alpha (Homo sapiens), entry OCCCNc1nccc(-c2c(-c3ccc(F)cc3)nn3cc(C(F)(F)F)ccc23)n1
result: 6.41

query: Requested read-out inhibition, target or system Casein kinase II subunit alpha (Homo sapiens), entry CS(=O)(=O)Nc1ccc(-c2ccc3c(NC(=O)C4CC4)n[nH]c3c2)cc1
result: 0.41

query: Requested read-out inhibition, target or system Casein kinase II subunit alpha (Homo sapiens), entry NS(=O)(=O)c1ccc(N/N=C2\C(=O)Nc3cccc(CCc4ccncc4)c32)cc1;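 note: reported value is the mean CK2 inhibition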
result: 2.3

* * *

target entity: Tyrosine-protein kinase JAK1 (Homo sapiens);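 note: each value is a mean inhibition of JAK1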
conditions: at 1 µM
measured metric: inhibition (%)
Field: numeric (%). Do not append units.

query: So what does the record say about inhibition for COc1cc(N2CCN(C(C)C)CC2)ccc1Nc1nc(Nc2cccc3ncccc23)c2cc[nH]c2n1 ?
result: -0.17

query: So what does the record say about inhibition for NC(=O)c1ccc2c(-c3ccnc(NCCCO)n3)c(-c3ccc(F)cc3)nn2c1 ?
result: 4.59

query: So what does the record say about inhibition for O=C1Nc2ccccc2/C1=C1\CCc2cc(O)ccc21 ?
result: 12.7

query: So what does the record say about inhibition for O=C(Nc1n[nH]c2nnc(-c3cccnc3)cc12)C1CC1 ?
result: 2.85

query: So what does the record say about inhibition for c1cnn2ncc(-c3ccnc(NCCCN4CCOCC4)n3)c2c1 ?
result: 4.8

query: So what does the record say about inhibition for CS(=O)(=O)Nc1ccc(-c2ccc3c(NC(=O)C4CC4)n[nH]c3c2)cc1 ?
result: -1.13

* * *

target entity: Dual specificity mitogen-activated protein kinase kinase 1 (Homo sapiens) (UniProt Q02750);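 note: reported value is a mean percent inhibition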
Sequence (Q02750 whole entry): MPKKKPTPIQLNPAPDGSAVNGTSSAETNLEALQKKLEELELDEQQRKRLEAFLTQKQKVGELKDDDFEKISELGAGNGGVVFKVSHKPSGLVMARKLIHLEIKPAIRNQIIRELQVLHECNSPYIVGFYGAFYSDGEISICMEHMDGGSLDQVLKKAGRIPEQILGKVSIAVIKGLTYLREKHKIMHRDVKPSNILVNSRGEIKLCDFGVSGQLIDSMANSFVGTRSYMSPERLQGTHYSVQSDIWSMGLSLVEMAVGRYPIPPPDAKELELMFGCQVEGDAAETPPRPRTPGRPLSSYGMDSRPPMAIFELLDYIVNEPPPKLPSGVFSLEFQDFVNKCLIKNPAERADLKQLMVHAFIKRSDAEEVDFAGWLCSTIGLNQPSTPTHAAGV
conditions: at 0.1 µM
measured metric: inhibition (%)
Field: numeric (%). Do not append units.

query: So what does the record say about inhibition for CCS(=O)(=O)c1ccc(OC)c(Nc2ncc(-c3cccc(C(C)=O)c3)o2)c1 ?
result: 3.55

query: So what does the record say about inhibition for COc1ccc2ncn(-c3cc(O[C@H](C)c4ccccc4C(F)(F)F)c(C(N)=O)s3)c2c1 ?
result: 0.25

query: So what does the record say about inhibition for Fc1cccc(COc2ccc(Nc3ncncc3C#Cc3ccccc3)cc2Cl)c1 ?
result: 6

query: So what does the record say about inhibition for CN(C)CCNC(=O)Nc1ccc(N(C)c2ccnc(Nc3ccc(CS(C)(=O)=O)cc3)n2)cc1 ?
result: 4.9

query: So what does the record say about inhibition for COc1cc(N2CCN(C(C)C)CC2)ccc1Nc1nc(Nc2cccc(F)c2C(=O)O)c2cc[nH]c2n1 ?
result: 4.86

query: So what does the record say about inhibition for Cc1ccc(-c2cc3c(NC(=O)C4CC4)ncnc3o2)cc1 ?
result: 3.02

query: So what does the record say about inhibition for c1cnn2ncc(-c3ccnc(NCCCN4CCOCC4)n3)c2c1 ?
result: 4.91

query: So what does the record say about inhibition for CNC(=O)c1ncccc1Nc1nc(Nc2cc3c(cc2OC)CCCN3C(=O)CN(C)C)nc2[nH]ccc12 ?
result: 3.03

query: So what does the record say about inhibition for OCCCNc1nccc(-c2c(-c3ccc(F)cc3)nn3cc(C(F)(F)F)ccc23)n1 ?
result: 1.92

query: So what does the record say about inhibition for CNC(=O)c1cncc(/C=C/c2ccccc2C)c1 ?
result: 6.36

query: So what does the record say about inhibition for CC(C)c1ccc(-c2cc(-c3c[nH]nc3-c3ccccn3)ccn2)cc1 ?
result: 0.36

query: So what does the record say about inhibition for CCN1CCC(C(=O)Nc2n[nH]c3nnc(-c4cccc(F)c4F)cc23)CC1 ?
result: 2.15

query: So what does the record say about inhibition for O=C(O[C@H]1CN[C@H](C#Cc2cc3ncnc(Nc4ccc(OCc5cccc(F)c5)c(Cl)c4)c3s2)C1)N1CCOCC1 ?
result: 6.24

query: So what does the record say about inhibition for CS(=O)(=O)CCNCc1ccc(-c2ccc3ncnc(Nc4ccc(OCc5ccccc5)cc4)c3c2)o1 ?
result: 2.75

query: So what does the record say about inhibition for NS(=O)(=O)c1ccc(N/N=C2\C(=O)Nc3cccc(CCc4ccncc4)c32)cc1 ?
result: 1.96

query: So what does the record say about inhibition for CCS(=O)(=O)c1ccc(OC)c(Nc2ncc(-c3cccc(F)c3)o2)c1 ?
result: 4.98

query: So what does the record say about inhibition for COc1cc(Nc2ncc(-c3ccccc3)o2)cc(OC)c1 ?
result: 4.41

query: So what does the record say about inhibition for N#Cc1cccc(Nc2ncc(-c3ccccc3)o2)c1 ?
result: 2.21

query: So what does the record say about inhibition for CCn1c(-c2nonc2N)nc2cncc(C(=O)NCCNC)c21 ?
result: 4.81

query: So what does the record say about inhibition for CC1=C(C(=O)Nc2ccc3[nH]ncc3c2)C(c2ccc(F)cc2)N=C(c2ccc(C(F)(F)F)nc2)N1 (centres undefined) ?
result: -0.07

query: So what does the record say about inhibition for CC1=C(C(=O)Nc2ccc3[nH]nc(C)c3c2)C(c2ccc(C(F)(F)F)cc2)CC(=O)N1 (centres undefined) ?
result: 6.17

query: So what does the record say about inhibition for CS(=O)(=O)Nc1ccc(-c2ccc3c(NC(=O)C4CC4)n[nH]c3c2)cc1 ?
result: 3.68

query: So what does the record say about inhibition for COc1ccc(Nc2ncc(-c3ccccc3)o2)cc1OC ?
result: 0.51

query: So what does the record say about inhibition for O=C(O[C@H]1CN[C@H](C#Cc2cc3ncnc(Nc4ccc5c(cnn5Cc5ccccc5)c4)c3s2)C1)N1CCOCC1 ?
result: -0.35

query: So what does the record say about inhibition for COc1cccc(Nc2nccc(-c3cnn4ncccc34)n2)c1 ?
result: 3.11

query: So what does the record say about inhibition for CC1(C)CC(n2cnc(-c3ccc(F)cc3)c2-c2ccnc(N)n2)CC(C)(C)N1 ?
result: 1.4

query: So what does the record say about inhibition for CCOc1ccc2c(-c3ccnc(Nc4cc(OC)cc(C(F)(F)F)c4)n3)cnn2n1 ?
result: 0.11

query: So what does the record say about inhibition for Cn1c(-c2nonc2N)nc2cnccc21 ?
result: 4.67

query: So what does the record say about inhibition for CN(c1ccc(NC(=O)NCCN2CCOCC2)cc1)c1ccnc(Nc2ccc(CS(C)(=O)=O)cc2)n1 ?
result: 5.04

query: So what does the record say about inhibition for NS(=O)(=O)c1cccc(N/C=C2\C(=O)Nc3ccccc32)c1 ?
result: 4.87

query: So what does the record say about inhibition for Cc1cc(O)cc(C)c1/C=C/c1cncc(C(N)=O)c1 ?
result: 2.17

query: So what does the record say about inhibition for c1ccc(-c2n[nH]cc2-c2ccnc(-c3ccc(OCCn4ccnc4)cc3)c2)nc1 ?
result: 5.95

query: So what does the record say about inhibition for Fc1ccc(Nc2nccc(-c3c(-c4ccc(C(F)(F)F)cc4)nn4ncccc34)n2)cc1F ?
result: 3.85

query: So what does the record say about inhibition for Cc1cc(O)cc(C)c1/C=C/c1cncc(C(=O)OC(C)(C)C)c1 ?
result: 4.02

Each recorded value in this set is attributed to ChEMBL document CHEMBL1961873.
